- method_description: S. cerevisiae growth modulation with rapamycin, primary screen, strain BY4716, OD600, 96 h (AID 1091); further: test concentration not given here
- conditions_used: higher = more signal, called active from +8 up or from −8 down
reported_metric: z-score

C[N+](C)(C)CCCC[C@@H]1NC(=O)[C@@H]2C[C@H](C(=O)NCCCCCN)[C@H](c3cccc(OCCO)c3)N2C1=O	0.371
CCOC(=O)C[C@H]1[C@H](OC(=O)Cc2ccc3c(c2)OCO3)[C@@H](NC(=O)c2ccc(-c3ccccc3)cc2)c2cc(OCCCO)ccc2N1C(=O)Cc1ccc(OC)cc1	0.105
CN1C(=O)C2C=CC(C(O)C3CCCCC3)N(Nc3ccc([N+](=O)[O-])cc3[N+](=O)[O-])C2C1=O (configuration not stated)	0.68
CN(C)CCCCCCNC(=O)[C@@H]1C[C@@H]2C(=O)N[C@@H](CCCCN)C(=O)N2[C@@H]1c1cccc(OCCO)c1	-1.3
CC[C@@H]1C=C(C(=O)O)[C@H](c2ccco2)N1S(=O)(=O)c1ccc(C)cc1	-0.407
O=C1NC(=O)C2C1C=CC(C(O)c1ccccc1)N2Nc1ccc(Cl)cc1Cl (configuration not stated)	-1.48
COc1ccc(CCN2C(=O)[C@@]3(Cc4ccccc42)c2ccccc2C(=O)N(Cc2ccccc2C(F)(F)F)[C@H]3c2ccc(CO)cc2)cc1	-1.68

----------
Catalogue of compounds with associated z-score
- method_description: P. aeruginosa biofilm formation inhibitors, primary screen, PAO1 strain, BacTiter-Glo luminescence, LB-PBS (AID 1144)
- conditions_used: 12 h, higher = more signal
Activity calls are given as the source filed them. No rule for the calls is given here.
reported_metric: z-score

CC(=O)NCCCC[C@@H]1NC(=O)[C@@H]2C[C@H](C(=O)NCCCCCCNC(=O)CS)[C@H](c3cccc(OCCO)c3)N2C1=O	-1.05 (inactive)
C=C(/C(=C/C[C@@H](OC(C)=O)c1ccc(OCCO)cc1)c1cnc2ccccc2c1)C(C)C	-0.25 (inactive)
COc1ccc(CCNC(=O)[C@@]2(Sc3ccc(C)cc3)CC(=O)N(C3CCCCC3)[C@@H]2c2ccc(CO)cc2I)cc1	-0.382 (inactive)
C=CCOC(=O)[C@@H]1[C@H]2C(=O)O[C@H](c3ccccc3)[C@H](c3ccccc3)N2[C@H](c2ccc(OCCOC(=O)[C@@H]3C[C@@H]4C(=O)N[C@@H](Cc5ccccc5)C(=O)N4[C@@H]3c3ccc(O)cc3)cc2)[C@@]12C(=O)Nc1ccc(I)cc12	-0.606 (inactive)
CC(C)(C)OC(=O)CC[C@]1(C(=O)O)N=C(c2ccc(OCCCO)cc2)O[C@H]1c1ccccc1N=[N+]=[N-]	0.448 (inactive)
CC(C)N1C(=O)[C@@]2(Cc3ccccc31)c1ccccc1C(=O)N(C1CCCCC1)[C@H]2c1ccc(CO)cc1	-0.868 (inactive)
CCOC(=O)C1=CCC(c2ccc(C)cc2)N(S(=O)(=O)c2ccc(C)cc2)C1 (stereo not drawn)	0.271 (inactive)
C=C(COC)/C(=C/C[C@H](OC(=O)c1ccncc1)c1ccc(OCCO)cc1)c1cnc2ccccc2c1	0.308 (inactive)
C[N+](C)(C)CCCCNC(=O)[C@H]1C[C@H]2C(=O)N[C@@H](Cc3ccccc3)C(=O)N2[C@H]1c1ccc(O)cc1	0.0228 (inactive)
COc1cc(CO)cc(I)c1O[C@H]1C=C(C(=O)NCCO)C[C@@H](N(CCN2CCOCC2)C(=O)C2CCOC2)[C@@H]1O (stereo partly drawn)	0.367 (inactive)
[N-]=[N+]=Nc1ccccc1C[C@]1(C(N)=O)N=C(c2ccc(OCCCO)cc2)O[C@H]1c1ccccc1	-0.726 (inactive)
C[N+](C)(C)CCCC[C@@H]1NC(=O)[C@@H]2C[C@H](C(=O)NCCCCCN)[C@H](c3cccc(OCCO)c3)N2C1=O	-0.165 (inactive)
Cc1ccc(S[C@]2(C(=O)NCC(C)C)CC(=O)N(Cc3cc(C(F)(F)F)cc(C(F)(F)F)c3)[C@@H]2c2ccc(CO)cc2I)cc1	-0.486 (inactive)
CC(C)c1ccc(NN2C(C(O)c3cc(C(F)(F)F)cc(C(F)(F)F)c3)C=CC3C(=O)N(c4ccccc4)C(=O)C32)cc1 (stereo not drawn)	-1.4 (inactive)
O=C1O[C@H](c2ccccc2)[C@H](c2ccccc2)N2[C@H]1[C@@H](C(=O)O)[C@]1(C(=O)Nc3ccc(C#CCCO)cc31)[C@H]2c1ccc(O)cc1	0.301 (inactive)
O=C1[C@H]2C=C(Br)[C@H](C[C@@H]2c2ccccc2)[C@@]12CO2	0.552 (inactive)
CCCC=C(CCC)[C@@H](NS(=O)(=O)c1cccs1)c1ccc(C(=O)OC)cc1	0.276 (inactive)
C=C[C@H](COC(C)=O)N(C(=O)OC(C)(C)C)S(=O)(=O)c1ccc(Br)cc1	-0.41 (inactive)
COCCOC(=O)N1C(=O)[C@@]2(c3cc(C#CCCO)ccc31)[C@H](C(=O)N1CCN(c3ncccn3)CC1)[C@H]1C(=O)O[C@H](c3ccccc3)[C@H](c3ccccc3)N1[C@@H]2c1ccccc1OCCO	-0.173 (inactive)
CN(C)CCCNC(=O)[C@@]1(C)c2ccccc2C(=O)N(Cc2cc(F)cc(C(F)(F)F)c2)[C@H]1c1ccc(CO)cc1	1.25 (inactive)
CCOC(=O)C[C@H]1[C@H](OC(=O)Cc2ccc3c(c2)OCO3)[C@@H](NC(=O)c2ccc(-c3ccccc3)cc2)c2cc(OCCCO)ccc2N1C(=O)Cc1ccc(OC)cc1	-0.304 (inactive)
CC(=O)N1Cc2ccccc2C[C@@]2(COC(c3ccc(OCCCO)cc3)=N2)C1=O	-0.957 (inactive)
COc1ccc(C(=O)Nc2ccc(CN3C(=O)[C@@]4(O[C@@H](CCn5cc([C@H](O)c6ccccc6)nn5)[C@H]([Si](C)(C)c5ccc(OC)cc5)[C@H]4C)c4ccccc43)cc2)cc1	-0.576 (inactive)
C[C@@H]1ON(c2cccc(C(=O)OC(C)(C)C)c2)[C@H](c2ccc(Br)cc2)[C@H]1C(=O)N1C(=O)OC[C@H]1Cc1ccccc1	0.938 (inactive)
O=C(NCc1ccc(F)cc1)[C@H]1C[C@H]2C(=O)N[C@@H](Cc3ccccc3)C(=O)N2[C@H]1c1ccc(O)cc1	0.506 (inactive)
C=CCOC(=O)[C@H]1[C@@H]2C(=O)O[C@@H](c3ccccc3)[C@@H](c3ccccc3)N2[C@@H](c2ccc(OCCOC(=O)[C@H]3C[C@H]4C(=O)N5CCC[C@H]5C(=O)N4[C@H]3c3ccc(O)cc3)cc2)[C@]12C(=O)Nc1ccc(I)cc12	1.03 (inactive)
CS(=O)(=O)CCOC(=O)C1=CC(CCCO)=CC(c2ccc(CN3CCCC3)cc2)N(Cc2cc3c(cc2Br)OCO3)C=C1C(=O)OCCS(C)(=O)=O (stereo not drawn)	0.814 (inactive)
O=C1NC(=O)C2C1C=CC(C(O)c1cccc3ccccc13)N2Nc1ccccn1 (stereo not drawn)	-0.484 (inactive)

----------
- method_description: E. coli acrAB mutant growth effects, primary screen, E. coli filamentation inducers, strain DRC39, OD650, 24 h (AID 1178);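 further: growth measured as culture turbidity by optical density at 650 nm; test concentration not given here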
- conditions_used: higher = more signal, called active from +8 up or from −8 down
reported_metric: z-score

C=CCN1C(=O)[C@]2(O[C@H](CCO)[C@@H]([Si](C)(C)c3ccc(OC)cc3)[C@@H]2C)c2cc(N3CCCCC3=O)ccc21	0.575
O=C1C2C=CC(C(O)c3c(F)cccc3Cl)N(Nc3ccccc3)C2C(=O)N1c1ccccc1 (stereo unspecified)	0.302
C[C@@]1([C@@H](NC(=O)c2ccccc2)c2ccc(-c3ccccc3)cc2)C[C@H]1C1CCCCC1	-1.59
O=C(C1N=C(c2ccc(OCCCO)cc2)N(c2ccccc2)O1)N1CCOCC1 (stereo unspecified)	1.42
CCCC#C[Si](O[C@H](CC)c1cn([C@H](CO)Cc2ccccc2)nn1)(C(C)C)C(C)C	-0.281
CCc1oc(CC[C@@H](CO)NC(=O)NCCn2cc(C3(O)CCCCC3)nn2)c(C(=O)OC)c1C(=O)OC	-0.247

----------
- method_description: P. aeruginosa biofilm formation inhibitors, primary screen, strain PAO1, LB-PBS medium, absorbance 600 nm (AID 1176); further: test concentration not given here
- conditions_used: P. aeruginosa PAO1 growth/biofilm, A600, 12 h; higher = more signal
Quick reference: z-score of the listed items.
reported_metric: z-score

COc1ccc(C(=O)Nc2ccc(CN3C(=O)[C@@]4(O[C@@H](CC(=O)N5CCC[C@H]5CO)[C@H]([Si](C)(C)c5ccc(OC)cc5)[C@H]4C)c4ccccc43)cc2)cc1	1.58
C=CCC(OC(C)=O)[C@@H]1[C@@H](N(Cc2ccc(-c3ccccc3)cc2)C(=O)Cc2ccc(F)cc2)c2cc(OCCCO)ccc2N1C(=O)c1ccc(-c2ccccc2)cc1 (stereo partly drawn)	-0.124
CCCC[C@@H]1C[C@H]1[C@@H](NC(=O)c1ccco1)c1ccc(C(=O)OC)cc1	0.812
COC(=O)C(CC#Cc1ccc2c(c1)[C@]1(C(=O)N2)[C@H](c2ccc(O)cc2)N2[C@H](c3ccccc3)[C@H](c3ccccc3)OC(=O)[C@H]2[C@@H]1C(=O)Nc1nc2ccccc2s1)C(=O)OC	1.27
COc1ccc(COC2OC[C@]3(C)[C@H]4C5=C(CN3C(=O)OC(C)(C)C)[C@H](C)C(CO)C(CO)C5CC[C@@H]24)cc1 (stereo partly drawn)	1.03
COC(=O)[C@@]1(Cc2ccc(OC)cc2)[C@H]2c3cc(C(=O)N4CCCC4)n(Cc4ccsc4Br)c3C[C@H]2CN1C(=O)c1ccccc1	0.576
CCOC(=O)C1=CCC(c2ccccc2)N(S(=O)(=O)CC[Si](C)(C)C)C1 (stereo not drawn)	-0.461
C=CC[C@@]1(C(=O)N(C)C)N=C(c2ccc(OCCCO)cc2)O[C@@H]1c1ccccc1N=[N+]=[N-]	0.314
CC[C@@H]1C=C(C(=O)O)[C@H](c2ccco2)N1S(=O)(=O)c1ccc(C)cc1	0.449
O=C1OCCC/C=C\[C@H]2OC34C=CCN(Cn5nnc6ccccc65)C(=O)[C@H]3N(CCCCCCO)C(=O)[C@@H]4C12 (stereo partly drawn)	1.07
O=C1O[C@H](c2ccccc2)[C@H](c2ccccc2)N2[C@H]1[C@@H](C(=O)Nc1nc3ccccc3s1)[C@]1(C(=O)Nc3ccc(C#CCCO)cc31)[C@H]2c1ccc(OCCO)cc1	1.85
O=C1O[C@@H](c2ccccc2)[C@@H](c2ccccc2)N2[C@@H](c3ccccc3OCCO)[C@]3(C(=O)Nc4ccc(C#CC5=CCCCC5)cc43)[C@@H](C(=O)Nc3nc4ccccc4s3)[C@H]12	2.84
C=CCC(OC(C)=O)[C@@H]1[C@@H](N(Cc2cccc3ccccc23)C(=O)c2ccc(-c3ccccc3)cc2)c2cc(OCCCO)ccc2N1C(=O)Cc1ccc(OC)cc1 (stereo partly drawn)	-0.513
